Target: NR1/NR2A (Homo sapiens)
Construct: expressed in transfected cells; host or cells: Xenopus laevis oocytes
Sequence (Q12879 23-1464, species assumed, other chains not shown): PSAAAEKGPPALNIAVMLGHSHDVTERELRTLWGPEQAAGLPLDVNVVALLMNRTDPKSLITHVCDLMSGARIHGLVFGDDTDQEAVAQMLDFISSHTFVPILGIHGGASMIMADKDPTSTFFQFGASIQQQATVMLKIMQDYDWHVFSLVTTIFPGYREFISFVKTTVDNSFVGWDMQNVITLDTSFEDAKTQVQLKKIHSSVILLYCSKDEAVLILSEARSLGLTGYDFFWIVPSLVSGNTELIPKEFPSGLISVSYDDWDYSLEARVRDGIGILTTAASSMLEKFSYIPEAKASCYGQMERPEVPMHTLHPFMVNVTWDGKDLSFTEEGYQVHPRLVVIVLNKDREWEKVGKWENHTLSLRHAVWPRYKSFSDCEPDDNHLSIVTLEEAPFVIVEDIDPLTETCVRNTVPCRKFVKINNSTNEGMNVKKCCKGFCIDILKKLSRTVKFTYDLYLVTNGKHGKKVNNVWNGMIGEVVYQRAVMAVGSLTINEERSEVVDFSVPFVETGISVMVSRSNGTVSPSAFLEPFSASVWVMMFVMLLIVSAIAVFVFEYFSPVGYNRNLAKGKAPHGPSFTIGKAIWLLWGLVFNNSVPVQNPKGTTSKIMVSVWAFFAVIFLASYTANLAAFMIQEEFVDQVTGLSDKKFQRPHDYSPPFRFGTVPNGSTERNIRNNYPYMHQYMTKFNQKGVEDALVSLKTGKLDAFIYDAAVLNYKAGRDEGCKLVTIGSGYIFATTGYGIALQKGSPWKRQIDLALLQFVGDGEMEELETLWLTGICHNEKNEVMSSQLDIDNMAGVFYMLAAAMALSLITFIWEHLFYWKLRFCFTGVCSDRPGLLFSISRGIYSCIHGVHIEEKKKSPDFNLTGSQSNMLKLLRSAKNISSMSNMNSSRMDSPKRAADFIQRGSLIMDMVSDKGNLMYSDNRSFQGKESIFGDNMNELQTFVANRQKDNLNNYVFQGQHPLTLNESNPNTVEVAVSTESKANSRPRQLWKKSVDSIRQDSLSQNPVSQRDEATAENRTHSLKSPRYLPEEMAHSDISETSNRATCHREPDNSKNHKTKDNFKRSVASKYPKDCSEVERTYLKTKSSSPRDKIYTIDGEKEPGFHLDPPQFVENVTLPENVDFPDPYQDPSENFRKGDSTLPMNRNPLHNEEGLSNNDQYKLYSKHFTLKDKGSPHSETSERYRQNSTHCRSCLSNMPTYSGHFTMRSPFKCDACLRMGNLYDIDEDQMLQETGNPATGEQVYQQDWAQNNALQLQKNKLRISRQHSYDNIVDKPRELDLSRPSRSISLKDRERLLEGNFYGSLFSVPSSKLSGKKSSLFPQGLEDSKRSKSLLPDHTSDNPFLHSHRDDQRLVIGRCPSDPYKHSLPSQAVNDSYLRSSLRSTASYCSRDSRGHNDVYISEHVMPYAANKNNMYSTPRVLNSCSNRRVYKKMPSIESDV
Assay: Two electrode voltage clamp, Xenopus laevis oocytes expressing NR1/NR2A
Format: cell-based
Conditions: at 100 μM; read-out: 2A percent effect at the maximum tested concentration
activity at 100 µM: recorded values
The reply should be a number in %, with the unit left off.

# annotated cases, reported activity at 100 µM shown
COc1cc2c(cc1OC)CN(C(=O)c1ccccc1)CC2 [1180-28] = 71
COc1ccc(NC(O)C2CN(C(C)C)C(=O)c3cc(OC)c(OC)cc32)c(OC)c1 (stereo not drawn) [compound 1440] = 123
COc1ccc(OCC2c3c(cc(OC)cc3OC)CCN2C(=O)c2cccc(Cl)c2)cc1 (stereo not drawn) [1180-20] = 92
COc1ccc(OCC2c3cc(OC)c(OC)cc3CCN2C(=O)c2cccc(OC)c2)cc1 (stereo not drawn) [compound 1392] = 104
Cc1cc(C(=O)O)c(NC(=O)c2ccccc2)s1 [compound 1396] = 96

// moving on: another record for activity at 100 µM
Tell me reported activity at 100 µM for CC(C)(C)c1ccc(C(=O)NC2=C(C(=O)O)C3CCCCCC3S2)cc1 (stereo not drawn) [compound 1482] , tested with NR1/NR2A (Homo sapiens).
97

----------
Target: NR1/NR2C (Homo sapiens, UniProt Q05586+Q14957)
Construct: expressed in transfected cells; host or cells: Xenopus laevis oocytes
Sequence (Q14957 20-1233, species assumed, other chains not shown): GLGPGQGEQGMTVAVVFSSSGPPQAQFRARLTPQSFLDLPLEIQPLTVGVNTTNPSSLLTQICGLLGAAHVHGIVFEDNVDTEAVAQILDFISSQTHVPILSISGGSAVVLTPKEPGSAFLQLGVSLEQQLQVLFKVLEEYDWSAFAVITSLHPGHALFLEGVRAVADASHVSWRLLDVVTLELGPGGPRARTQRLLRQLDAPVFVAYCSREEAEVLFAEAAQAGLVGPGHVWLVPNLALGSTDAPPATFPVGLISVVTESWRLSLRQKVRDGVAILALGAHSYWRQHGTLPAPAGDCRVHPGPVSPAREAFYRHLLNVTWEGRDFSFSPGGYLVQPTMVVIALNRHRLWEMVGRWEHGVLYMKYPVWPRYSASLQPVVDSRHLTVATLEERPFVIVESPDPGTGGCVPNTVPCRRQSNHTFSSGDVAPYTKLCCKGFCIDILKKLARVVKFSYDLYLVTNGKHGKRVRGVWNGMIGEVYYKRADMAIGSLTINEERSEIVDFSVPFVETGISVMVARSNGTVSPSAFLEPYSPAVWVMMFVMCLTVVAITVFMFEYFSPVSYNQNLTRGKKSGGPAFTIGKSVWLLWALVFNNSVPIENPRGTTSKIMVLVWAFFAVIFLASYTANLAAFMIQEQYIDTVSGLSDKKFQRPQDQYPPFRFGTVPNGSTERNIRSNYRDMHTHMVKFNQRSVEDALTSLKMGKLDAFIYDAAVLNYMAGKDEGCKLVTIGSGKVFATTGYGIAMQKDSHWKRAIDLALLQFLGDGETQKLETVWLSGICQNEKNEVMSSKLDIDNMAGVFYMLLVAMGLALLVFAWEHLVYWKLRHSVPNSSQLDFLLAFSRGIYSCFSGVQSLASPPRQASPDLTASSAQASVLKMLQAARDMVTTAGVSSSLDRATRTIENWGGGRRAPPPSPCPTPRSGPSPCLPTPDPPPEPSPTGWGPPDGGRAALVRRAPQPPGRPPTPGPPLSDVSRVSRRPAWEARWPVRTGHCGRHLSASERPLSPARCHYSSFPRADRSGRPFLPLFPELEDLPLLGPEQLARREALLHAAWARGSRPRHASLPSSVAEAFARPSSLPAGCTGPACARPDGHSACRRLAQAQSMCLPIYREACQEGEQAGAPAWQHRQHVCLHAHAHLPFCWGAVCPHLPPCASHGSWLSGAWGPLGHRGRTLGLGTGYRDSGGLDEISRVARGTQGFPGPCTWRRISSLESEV
Assay: Two electrode voltage clamp, Xenopus laevis oocytes expressing NR1/NR2C
Type: cell-based
Details: maximal effect of fit; read-out: 2C Max
Emax: recorded values
The reply should be a number in %, with the unit left off.

# annotated cases, reported Emax shown
Cc1ccc(-c2csc(NC(=O)c3ccc(C(C)(C)C)cc3)c2C(=O)O)cc1 [compound 1434] = 224
CSC1=NCCN1C(=O)c1ccc(C(C)(C)C)cc1 [compound 1343] = 303
CC(C)(C)c1ccc(C(=O)Nc2sc3c(c2C(=O)O)CCCC3)cc1 [compound 1417] = 202
Cc1sc(NC(=O)c2ccc(C(C)(C)C)cc2)c(C(N)=O)c1C [compound 1433] = 134
COc1ccc(OCC2c3c(cc(OC)cc3OC)CCN2C(=O)c2ccccc2)cc1 (stereo not drawn) [1180-19] = 160

Tell me reported Emax for COc1ccc(OCC2c3cc(OC)c(OC)cc3CCN2C(=O)c2cccs2)cc1 (stereo not drawn) [compound 1486] , tested with NR1/NR2C (Homo sapiens, UniProt Q05586+Q14957).
131

Tell me reported Emax for COc1ccc(-c2csc(NC(=O)c3ccc(C(C)(C)C)cc3)c2C(=O)O)cc1 [compound 1424] , tested with NR1/NR2C (Homo sapiens, UniProt Q05586+Q14957).
434

Tell me reported Emax for COc1ccc(OCC2c3c(cc(OC)cc3OC)CCN2C(=O)c2cccc(Cl)c2)cc1 (stereo not drawn) [1180-20] , tested with NR1/NR2C (Homo sapiens, UniProt Q05586+Q14957).
253

Tell me reported Emax for COc1ccc(OCC2c3cc(OC)c(OC)cc3CCN2C(=O)c2ccc(Cl)cc2)cc1 (stereo not drawn) [compound 1368] , tested with NR1/NR2C (Homo sapiens, UniProt Q05586+Q14957).
135

----------
pIC50: recorded values
Biological target: NR1/NR2B (Homo sapiens, UniProt Q05586+Q13224)
Sequence (Q13224 27-1484, species assumed, other chains not shown): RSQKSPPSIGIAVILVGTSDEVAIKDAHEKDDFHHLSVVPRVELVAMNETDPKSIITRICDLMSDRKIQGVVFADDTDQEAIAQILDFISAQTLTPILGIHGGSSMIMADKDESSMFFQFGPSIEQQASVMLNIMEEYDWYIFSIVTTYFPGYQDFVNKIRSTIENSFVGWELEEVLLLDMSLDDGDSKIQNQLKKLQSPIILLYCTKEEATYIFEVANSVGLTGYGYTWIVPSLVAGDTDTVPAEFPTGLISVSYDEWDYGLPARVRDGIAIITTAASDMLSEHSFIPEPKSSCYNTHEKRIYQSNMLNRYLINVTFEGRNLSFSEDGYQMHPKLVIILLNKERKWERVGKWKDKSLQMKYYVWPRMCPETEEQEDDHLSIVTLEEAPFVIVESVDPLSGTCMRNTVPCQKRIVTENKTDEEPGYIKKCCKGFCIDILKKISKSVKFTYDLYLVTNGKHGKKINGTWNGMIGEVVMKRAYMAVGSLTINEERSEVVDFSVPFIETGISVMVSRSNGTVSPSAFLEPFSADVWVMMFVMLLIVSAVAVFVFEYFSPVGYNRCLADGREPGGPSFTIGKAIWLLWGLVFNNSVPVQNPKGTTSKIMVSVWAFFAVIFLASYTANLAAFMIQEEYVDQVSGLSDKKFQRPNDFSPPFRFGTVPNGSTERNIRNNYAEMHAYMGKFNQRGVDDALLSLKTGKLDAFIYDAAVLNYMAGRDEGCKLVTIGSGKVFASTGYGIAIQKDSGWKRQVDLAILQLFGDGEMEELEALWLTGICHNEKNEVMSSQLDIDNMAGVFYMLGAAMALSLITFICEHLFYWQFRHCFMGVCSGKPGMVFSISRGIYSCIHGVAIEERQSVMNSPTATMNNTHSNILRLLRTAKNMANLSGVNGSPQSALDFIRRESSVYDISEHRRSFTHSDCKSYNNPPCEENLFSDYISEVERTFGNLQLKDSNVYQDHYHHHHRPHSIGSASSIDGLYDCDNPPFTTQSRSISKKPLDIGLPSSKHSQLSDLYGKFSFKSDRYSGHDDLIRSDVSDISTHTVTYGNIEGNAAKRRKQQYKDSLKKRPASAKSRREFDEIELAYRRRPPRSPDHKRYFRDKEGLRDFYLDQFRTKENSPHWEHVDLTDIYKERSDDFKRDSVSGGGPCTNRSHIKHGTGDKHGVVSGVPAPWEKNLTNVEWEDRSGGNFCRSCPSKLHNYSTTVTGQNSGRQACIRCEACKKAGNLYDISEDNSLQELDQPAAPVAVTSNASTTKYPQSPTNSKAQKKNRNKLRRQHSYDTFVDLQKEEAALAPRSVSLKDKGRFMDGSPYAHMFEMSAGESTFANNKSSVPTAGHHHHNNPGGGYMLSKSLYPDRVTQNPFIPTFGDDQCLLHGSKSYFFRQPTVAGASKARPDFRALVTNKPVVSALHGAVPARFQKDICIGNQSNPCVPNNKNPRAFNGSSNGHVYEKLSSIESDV
Experiment: Two electrode voltage clamp, Xenopus laevis oocytes expressing NR1/NR2B
Settings: fitted to composite concentration-effect data; Max 0 = inhibition; read-out: 2B IC50
The quantity pIC50 is defined as the negative base-10 logarithm of the molar concentration.

# annotated cases, reported pIC50 shown
O=C(O)c1c(NC(=O)c2cccc3ccccc23)sc2c1CCC2 [compound 1441] = 4.37
CCOc1ccc(-c2csc(NC(=O)c3ccc(C(C)(C)C)cc3)c2C(=O)O)cc1 [compound 1423] = 4.74
CSC1=NCCN1C(=O)c1ccc(C)cc1 [compound 1344] = 3.76
Cc1ccc(-c2csc(NC(=O)c3ccc(C(C)(C)C)cc3)c2C(=O)O)cc1 [compound 1434] = 4.96

// moving on: another record for pIC50
Param item = CC(C)(C)c1ccc(C(=O)Nc2scc(-c3ccccc3)c2C(=O)O)cc1 [compound 1406] ; retrieve measured pIC50.
4.43
